Hey, just so you know, these numbers are from paper PMC8457121.

Measured IC50 on UniProt Q5S007 follows.
Sequence (Q5S007 whole entry): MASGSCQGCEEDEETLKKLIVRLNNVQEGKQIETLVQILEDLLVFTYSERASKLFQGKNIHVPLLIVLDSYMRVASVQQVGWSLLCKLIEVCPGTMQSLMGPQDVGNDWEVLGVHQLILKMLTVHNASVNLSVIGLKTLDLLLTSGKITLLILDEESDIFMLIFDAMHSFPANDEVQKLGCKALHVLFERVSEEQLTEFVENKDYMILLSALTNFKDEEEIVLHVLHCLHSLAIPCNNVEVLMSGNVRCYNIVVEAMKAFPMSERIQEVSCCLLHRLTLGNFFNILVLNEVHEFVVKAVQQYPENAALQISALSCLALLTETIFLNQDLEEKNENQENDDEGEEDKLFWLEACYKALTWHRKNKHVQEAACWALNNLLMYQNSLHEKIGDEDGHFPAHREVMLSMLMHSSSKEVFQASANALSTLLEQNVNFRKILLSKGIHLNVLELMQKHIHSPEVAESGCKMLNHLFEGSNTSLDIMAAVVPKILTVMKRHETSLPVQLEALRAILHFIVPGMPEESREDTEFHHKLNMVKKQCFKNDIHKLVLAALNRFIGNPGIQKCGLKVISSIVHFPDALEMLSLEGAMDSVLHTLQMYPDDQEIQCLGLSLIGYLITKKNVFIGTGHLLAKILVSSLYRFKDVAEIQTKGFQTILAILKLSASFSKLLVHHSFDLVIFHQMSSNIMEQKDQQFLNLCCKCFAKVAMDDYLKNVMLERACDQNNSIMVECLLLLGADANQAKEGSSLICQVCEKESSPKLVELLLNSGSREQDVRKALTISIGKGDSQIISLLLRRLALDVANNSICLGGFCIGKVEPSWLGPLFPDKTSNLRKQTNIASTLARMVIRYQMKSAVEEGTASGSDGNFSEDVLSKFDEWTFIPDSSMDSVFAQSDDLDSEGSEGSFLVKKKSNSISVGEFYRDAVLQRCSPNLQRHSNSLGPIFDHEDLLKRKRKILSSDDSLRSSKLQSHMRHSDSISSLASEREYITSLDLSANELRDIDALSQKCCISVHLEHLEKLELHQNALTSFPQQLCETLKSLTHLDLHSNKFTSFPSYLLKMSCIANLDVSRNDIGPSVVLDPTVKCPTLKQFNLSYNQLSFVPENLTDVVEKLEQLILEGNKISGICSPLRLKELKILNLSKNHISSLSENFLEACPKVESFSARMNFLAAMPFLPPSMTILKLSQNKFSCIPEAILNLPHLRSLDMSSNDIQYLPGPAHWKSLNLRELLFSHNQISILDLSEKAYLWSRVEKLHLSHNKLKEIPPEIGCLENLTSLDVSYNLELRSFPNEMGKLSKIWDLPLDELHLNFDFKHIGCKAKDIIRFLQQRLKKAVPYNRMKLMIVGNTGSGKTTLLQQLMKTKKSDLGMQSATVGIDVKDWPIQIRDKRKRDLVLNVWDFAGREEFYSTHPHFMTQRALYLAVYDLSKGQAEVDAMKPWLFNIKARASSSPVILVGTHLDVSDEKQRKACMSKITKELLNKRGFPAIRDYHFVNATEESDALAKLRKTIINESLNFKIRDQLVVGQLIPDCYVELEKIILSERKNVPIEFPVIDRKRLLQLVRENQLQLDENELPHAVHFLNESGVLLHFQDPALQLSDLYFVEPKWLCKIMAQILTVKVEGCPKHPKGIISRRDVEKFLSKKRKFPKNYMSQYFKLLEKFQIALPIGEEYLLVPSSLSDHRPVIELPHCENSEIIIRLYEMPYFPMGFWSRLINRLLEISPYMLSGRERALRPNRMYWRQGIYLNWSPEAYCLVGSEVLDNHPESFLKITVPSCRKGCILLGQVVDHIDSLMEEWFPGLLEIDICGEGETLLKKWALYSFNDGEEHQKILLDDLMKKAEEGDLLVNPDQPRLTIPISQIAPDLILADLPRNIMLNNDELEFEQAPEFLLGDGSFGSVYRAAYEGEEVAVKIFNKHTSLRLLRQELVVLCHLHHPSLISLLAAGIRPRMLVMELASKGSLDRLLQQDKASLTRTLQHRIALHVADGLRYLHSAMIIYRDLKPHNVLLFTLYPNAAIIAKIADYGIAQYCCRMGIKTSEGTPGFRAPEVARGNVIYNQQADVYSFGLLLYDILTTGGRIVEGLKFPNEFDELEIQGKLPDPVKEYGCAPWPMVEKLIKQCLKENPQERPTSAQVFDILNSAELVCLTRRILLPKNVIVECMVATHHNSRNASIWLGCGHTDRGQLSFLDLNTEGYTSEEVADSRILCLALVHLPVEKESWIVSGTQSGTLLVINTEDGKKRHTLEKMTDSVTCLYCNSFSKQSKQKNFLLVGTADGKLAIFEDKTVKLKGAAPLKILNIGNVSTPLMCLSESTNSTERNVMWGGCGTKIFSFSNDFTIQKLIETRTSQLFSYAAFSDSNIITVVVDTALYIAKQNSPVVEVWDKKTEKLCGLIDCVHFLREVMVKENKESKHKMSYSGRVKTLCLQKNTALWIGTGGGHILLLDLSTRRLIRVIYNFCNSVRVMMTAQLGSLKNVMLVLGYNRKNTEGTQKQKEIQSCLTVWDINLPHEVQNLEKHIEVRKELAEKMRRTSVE
property-name: IC50 (µM)

[P] O=C(Cc1ccc(OCc2cn(Cc3ccc(C(=O)Nc4nc5ccccc5s4)cc3)nn2)cc1)Nc1nc2ccc(C(F)(F)F)cc2s1
[Q] O=C(Nc1nc2ccccc2s1)c1ccc(Cn2cc(COc3ccc(C(=O)Nc4nc5ccccc5s4)cc3)nn2)cc1
[R] O=C(Cc1ccc(Cn2cc(COc3ccc(C(=O)Nc4nc5ccccc5s4)cc3)nn2)cc1)Nc1nc2ccccc2s1
[S] COc1ccc2nc(NC(=O)Cc3ccc(OCc4cn(CCc5ccc(C(=O)Nc6nc7ccccc7s6)cc5)nn4)cc3)sc2c1
Exercise: Given 4 compounds, produce a descending ranking by IC50. Order the labels as requested and list them.
Solution: R, Q, P, S
